target: acetylcholine receptor; assay: SPR, receptor on CM5 chip, peptide 10 µM
assayMetric: Binding affinity (RU)
State the answer as a number, implicitly in RU.

# input Please report Binding affinity (RU) for the following binder: KKGRSK [6mer-1-514]
# output 128

# input Please report Binding affinity (RU) for the following binder: RKVRRR [6mer-1-69]
# output 142

# input Please report Binding affinity (RU) for the following binder: KRWIRR [6mer-1-93]
# output 136

# input Please report Binding affinity (RU) for the following binder: RKVYRR [6mer-1-511]
# output 136

# input Please report Binding affinity (RU) for the following binder: RRQLRR [6mer-1-525]
# output 139

# input Please report Binding affinity (RU) for the following binder: KRWICK [6mer-1-88]
# output 121

# input Please report Binding affinity (RU) for the following binder: KRRRQK [6mer-1-476]
# output 154

# input Please report Binding affinity (RU) for the following binder: RKWFSR [6mer-1-533]
# output 145
